Here, each record is paired with measured activity (max response) data.
- protocolDescription: Cellular viability qHTS for adrenocortical cancer (ACC) cell line SW-13 (AID 1963989);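 further: cells grown in serum-free medium with ITS supplement; on the % scale 0 is the no-effect control and ±100 the full control effect; nearly all actives have a fitted effect of over 65% in size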
- experimentalParameters: SW-13 ACC cells viability, CellTiter-Glo, 48 h; stronger effect = lower value
Records with an inconclusive call do not appear.
Answer format: numeric, % implied, no suffix.

Some solved entries appear below for comparison.
molecule | readoutType | unitAbbreviation | numericResult
O=C(Nc1ccccc1-c1ccc(Cl)cc1)c1cccnc1Cl | activity (max response) | % | -12.7
CC(C(=O)c1ccccc1)N(C)C (centres undefined) | activity (max response) | % | 8.81
CC(C)(C)NCC(O)c1ccccc1Cl (centres undefined) | activity (max response) | % | 3.76
CC(CCc1ccccc1)NC(C)C(O)c1ccc(O)cc1 (centres undefined) | activity (max response) | % | -14.3
COCC(=O)N(c1c(C)cccc1C)C(C)C(=O)OC (centres undefined) | activity (max response) | % | 0.998
O=C(O)Cc1ccccc1 | activity (max response) | % | -6.54
O=C(O)CNC(=O)C1C(=O)N(C2CCCCC2)C(=O)N(C2CCCCC2)C1=O | activity (max response) | % | -10.4
Nc1ccccc1 | activity (max response) | % | 7.78

Item under review: CN(C)CCN(C)CCc1ccc(Cl)c(Cl)c1 . Reported activity (max response)?
-5.37

----------
- protocolDescription: Viability qHTS for spleen associated tyrosine kinase inhibitor (SYKi) drug resistant MV4-11 cells (AID 1963824); further: nearly all actives have a fitted effect of over 35% in size
- experimentalParameters: SYKi-resistant MV4-11 viability, CellTiter-Glo, 72 h; series mostly up to 45 µM
Inconclusive results are not listed. Active and inactive are the calls of the source. The call rests on the fitted dose curve; in most records, active means well fitted cell-killing curve with a large enough effect; inconclusive means small, poorly fitted or top-dose-only effect, or effect the other way; inactive means no such curve, though single readings can be large or run the other way.
// classify into active, inactive

Below are worked cases with known answers.
molecule | classification
CCC1(CC)C(=O)NC(=O)NC1=O | inactive
C[C@]12COC(=O)C[C@@H]1CC[C@@H]1[C@@H]2CC[C@@]2(C)[C@H]1CC[C@]2(C)O | inactive
CCOC(=O)Nc1ccc(NCc2c(C)cc(C)cc2C)cc1N | active

Kindly provide the recorded test outcome for the following molecule: Oc1ccc(Cl)cc1Cc1ccccc1
active

Tell me the recorded outcome of this test for COc1cc(CCN)cc(OC)c1OC .
inactive

Tell me the recorded outcome of this test for CCN(CC)C(C)C(=O)c1ccccc1 (configuration not stated) .
inactive

Call for entry CC(=O)O[C@H]1C[C@@H](C)O[C@H]2O[C@@H]3CC4CC[C@@H]5C(CC[C@]6(C)[C@@H](C7=CC(=O)OC7)CC[C@]56O)[C@@]4(C=O)C[C@H]3O[C@]21O (some centres not stated) :
active

# credit: PubChem BioAssay (NCATS)
